Data provenance is patent US12319655B2.

Listed here: items and their measured pIC50.
- System: H2405 cells
- experimentDescription: H2405 Cell Proliferation Assay (1)
- Assay type: cell-based
- testParameters: Homo sapiens, NCI-H2405
pIC50: −log10 of the molar value.

Examples with answers:
chemicalStructure: Cc1nc(-c2ccnc(NC(=O)C3CC3)c2)cc(-c2cc(NC(=O)c3ccnc(C4CC4)c3)cnc2C)n1
dataValue: 6.00 to 6.30
//
chemicalStructure: Cc1ncc(NC(=O)c2ccnc(C(C)(C)C#N)c2)cc1-c1cccc(-c2cc(N)ncn2)c1
dataValue: 5.00 to 6.00
//
chemicalStructure: CNC(=O)c1cc(-c2cc(-c3cc(NC(=O)c4ccnc(C(C)(C)C#N)c4)ccc3F)cc(C)n2)ccn1
dataValue: 6.30 to 7.00
//
chemicalStructure: Cc1ncc(NC(=O)c2ccnc(C(C)(C)C#N)c2)cc1-c1cccc(-c2ccnc(C(N)=O)c2)c1
dataValue: 6.30 to 7.00
//
chemicalStructure: CNC(=O)c1cc(-c2cc(-c3cc(NC(=O)c4ccnc(C(F)(F)F)c4)cnc3C)ccn2)ccn1
dataValue: 6.00 to 6.30
//
chemicalStructure: CCOc1cc(-c2cc(NC(=O)c3ccnc(C(F)(F)F)c3)ccc2C)cc(-c2ccnc(NC(=O)C3CC3)c2)n1
dataValue: 6.30 to 7.00
//
chemicalStructure: Cc1ccc(NC(=O)c2ccnc(C(F)(F)F)c2)cc1-c1ccnc(-c2ccnc(N)c2)n1
dataValue: 5.00 to 6.00
//
chemicalStructure: Cc1ccc(NC(=O)c2ccnc(C3(C#N)CC3)c2)cc1-c1nccc(-c2ccnc(NC(=O)C3CC3)c2)n1
dataValue: 6.30 to 7.00

Under H2405 cells, report pIC50 for Cc1ccc(NC(=O)c2ccnc(C(C)(C)C#N)c2)cc1-c1cnnc(-c2ccnc(NC(=O)C3CC3)c2)c1 ≥ 7.00

Under H2405 cells, report pIC50 for COC(=O)Nc1cc(-c2cc(-c3cc(NC(=O)c4ccnc(C(F)F)c4)cnc3C)ccn2)ccn1 6.30 to 7.00

Under H2405 cells, report pIC50 for Cc1ccc(NC(=O)c2ccnc(C(C)(C)C#N)c2)cc1-c1cc(-c2ccnc(NC(=O)C3CC3)c2)cnn1 ≥ 7.00

Under H2405 cells, report pIC50 for Cc1ccc(NC(=O)c2ccnc(C(C)(C)C#N)c2)cc1-c1cccc(-c2cc(NC(=O)C3CC3)ncn2)c1 ≥ 7.00

Under H2405 cells, report pIC50 for CNC(=O)c1cc(-c2cc(-c3cc(NC(=O)c4ccnc(C(F)(F)F)c4)ccc3C)ncn2)ccn1 6.30 to 7.00
